Target: T1, Bdf1 bromodomain 1 (GST-tagged, WT) (Saccharomyces cerevisiae (strain ATCC …, UniProt P35817))
T1 chain: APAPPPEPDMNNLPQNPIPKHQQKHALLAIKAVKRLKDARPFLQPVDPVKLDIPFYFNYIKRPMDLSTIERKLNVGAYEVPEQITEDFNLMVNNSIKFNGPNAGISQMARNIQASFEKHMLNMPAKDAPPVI
Test: histone peptide array probed with recombinant GST-bromodomain, signal normalised to myc peptide control
Non-standard residues stand in square brackets, D forms with d. No end group written: not given here. Arg(Me2a) = CN(C)C(=N)NCCC[C@H](N)C(=O)O; pT = C[C@@H](OP(=O)(O)O)[C@H](N)C(=O)O; Lys(Me2) = CN(C)CCCC[C@H](N)C(=O)O; Me2s = symmetric dimethyl (on Arg); pS = N[C@@H](COP(=O)(O)O)C(=O)O; Me3 = trimethyl (on Lys)
Would you mind labelling by binding score? At or over 0.007 is Condition met, under is Condition not met.

Worked examples follow.
>>> class_label("ARTKQTARKSTGGKAPRKQ (A R T K Q T A R Kac pS T G G K A P R K Q)")
"Condition not met"
>>> class_label("AR[pT]KQTARKSTGGKAPRKQ")
"Condition not met"

Request: # check: binding score of `A[Arg(Me2a)][pT][Lys(Me2)]QTARKSTGGKAPRKQ` is greater than or equal to 0.007
Response: Condition not met

Request: And the next one, `ARTK(Me3)QTAR(Me2s)K(Ac)STGGKAPRKQ` ?
Response: Condition met

Request: And the next one, ARTKQTARKSTGGKAPRKQ (A R T K Q T A Rme2a K S T G G K A P R K Q) ?
Response: Condition not met

Request: And the next one, [pS]GRGK(Ac)QGGK(Ac)ARAK(Ac)AKSRSS [H2a 1-19] ?
Response: Condition met

Request: And the next one, `ARTKQTA[Arg(Me2a)]K(Me)[pS]TGGKAPRKQ` ?
Response: Condition not met

Request: And the next one, SGRGKGGKGLGKGGAKRHR (S G R G Kac G G Kac G L G K G G A K R H R) [H4 1-19] ?
Response: Condition met

Request: And the next one, ARTKQTARKSTGGKAPRKQ (A R T K Q T A R Kme2 S T G G K A P R K Q) ?
Response: Condition not met

Request: And the next one, ARTKQTARKSTGGKAPRKQ (A R T Kme3 Q T A Rme2a Kme3 S T G G K A P R K Q) ?
Response: Condition not met

Request: And the next one, ARTKQTARKSTGGKAPRKQ (A Rme2s T Kme1 Q T A Rme2a Kac S T G G K A P R K Q) ?
Response: Condition not met

Request: And the next one, ARTKQTARKSTGGKAPRKQ (A Rme2a T Kme3 Q T A Rme2a K S T G G K A P R K Q) ?
Response: Condition met

Request: And the next one, ARTKQTARKSTGGKAPRKQ (A R T Kme2 Q T A Rme2s Kme2 S T G G K A P R K Q) ?
Response: Condition not met
